These data points were gathered from patent US9340577B2.

Below is a list of entries, each paired with its recorded pIC50 value.
# target: DRB1*1501 (Homo sapiens, UniProt P01903+P01911)
# method: biochemical
# Format: binding
pIC50: −log10 of the molar value. No end group written: not given here.

>  <sequence.entry>
GKSLFGMSLMKFLQG [Peptide 89.0019]

>  <target>
DRB1*1501 (Homo sapiens, UniProt P01903+P01911)

>  <inequality.operator>
=

>  <pIC50>
5.56

$$$$
>  <sequence.entry>
QQQMFLGTVKIPPTV [Peptide 89.0187]

>  <target>
DRB1*1501 (Homo sapiens, UniProt P01903+P01911)

>  <inequality.operator>
=

>  <pIC50>
6.00

$$$$
>  <sequence.entry>
LYCYEQLSDSSDEDE [Peptide 1543.13]

>  <target>
DRB1*1501 (Homo sapiens, UniProt P01903+P01911)

>  <inequality.operator>
<

>  <pIC50>
4.70

$$$$
>  <sequence.entry>
NSIFDFGEMVQWAYD [Peptide 89.0106]

>  <target>
DRB1*1501 (Homo sapiens, UniProt P01903+P01911)

>  <inequality.operator>
=

>  <pIC50>
5.00

$$$$
>  <sequence.entry>
YFKYFKEDAAKYSKT [Peptide 90.0205]

>  <target>
DRB1*1501 (Homo sapiens, UniProt P01903+P01911)

>  <inequality.operator>
=

>  <pIC50>
5.41

$$$$
>  <sequence.entry>
NCNSNTTPIVHLKGD [Peptide 1601.08]

>  <target>
DRB1*1501 (Homo sapiens, UniProt P01903+P01911)

>  <inequality.operator>
<

>  <pIC50>
4.70

$$$$
>  <sequence.entry>
RLNLDNDEDKENNGD [Peptide 90.0144]

>  <target>
DRB1*1501 (Homo sapiens, UniProt P01903+P01911)

>  <inequality.operator>
=

>  <pIC50>
6.24

$$$$
>  <sequence.entry>
QKCFKKKGITVTVQY [Peptide 90.0026]

>  <target>
DRB1*1501 (Homo sapiens, UniProt P01903+P01911)

>  <inequality.operator>
<

>  <pIC50>
4.70

$$$$
>  <sequence.entry>
KHIRLLECVLMYKARE [Peptide 1601.44]

>  <target>
DRB1*1501 (Homo sapiens, UniProt P01903+P01911)

>  <inequality.operator>
=

>  <pIC50>
7.13

$$$$
>  <sequence.entry>
TVEVQFDGDICNTMH [Peptide 90.0167]

>  <target>
DRB1*1501 (Homo sapiens, UniProt P01903+P01911)

>  <inequality.operator>
=

>  <pIC50>
5.29

$$$$
>  <sequence.entry>
RDSVDSAPILTAFNS [Peptide 89.0156]

>  <target>
DRB1*1501 (Homo sapiens, UniProt P01903+P01911)

>  <inequality.operator>
=

>  <pIC50>
5.32

$$$$
>  <sequence.entry>
HKAIELQMALKGLAQ [Peptide 90.0004]

>  <target>
DRB1*1501 (Homo sapiens, UniProt P01903+P01911)

>  <inequality.operator>
=

>  <pIC50>
5.18

$$$$
>  <sequence.entry>
GKSYFGMSLIHFLKG [Peptide 89.0146]

>  <target>
DRB1*1501 (Homo sapiens, UniProt P01903+P01911)

>  <inequality.operator>
<

>  <pIC50>
4.70

$$$$

----------
Below is a list of entries, each paired with its recorded IC50 value.
# target: DRB1*0301 (Homo sapiens, UniProt P01903+P01911, A100K/A102G/A103R/A169T/F55Y/I96L/K41T/L162R/M171V/P40S/Q125H/Q178H/Q39Y/R42S/S66N/T106N/T262R/W38E/Y61H)
# Sequence (P01903 26-254 limits assumed, other chains not shown): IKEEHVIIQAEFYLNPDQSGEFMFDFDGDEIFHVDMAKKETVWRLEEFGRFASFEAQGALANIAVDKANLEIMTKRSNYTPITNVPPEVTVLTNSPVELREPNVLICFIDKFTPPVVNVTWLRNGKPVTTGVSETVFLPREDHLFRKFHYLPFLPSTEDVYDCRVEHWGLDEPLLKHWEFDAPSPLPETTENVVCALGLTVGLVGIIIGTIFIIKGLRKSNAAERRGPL
# method: biochemical

>  <compound>
CC[C@H](C)[C@H](NC(=O)[C@H](Cc1c[nH]c2ccccc12)NC(=O)[C@H](CCC(=O)O)NC(=O)[C@@H]1CCCN1)C(=O)N[C@@H](CCC(=O)O)C(=O)N[C@@H](CCCNC(=N)N)C(=O)N[C@@H](CCC(N)=O)C(=O)N[C@H](C(=O)N[C@H](C(=O)N[C@@H](CC(C)C)C(=O)N[C@@H](CCC(N)=O)C(=O)N[C@@H](Cc1c[nH]cn1)C(=O)N[C@@H](CO)C(=O)N[C@@H](Cc1ccccc1)C(=O)N[C@@H](CC(N)=O)C(=O)O)C(C)C)[C@@H](C)O [Peptide 89.0049]

>  <inequality.operator>
=

>  <IC50 / µM>
0.21

$$$$
>  <compound>
CC[C@H](C)[C@H](NC(=O)[C@H](CCCNC(=N)N)NC(=O)[C@@H](N)[C@@H](C)O)C(=O)N[C@@H](Cc1ccc(O)cc1)C(=O)N[C@@H](CC(N)=O)C(=O)N[C@H](C(=O)N[C@H](C(=O)NCC(=O)N[C@H](C(=O)N[C@@H](CC(C)C)C(=O)N[C@@H](CCCNC(=N)N)C(=O)NCC(=O)N[C@@H](C)C(=O)N[C@H](C(=O)N[C@@H](CCC(=O)O)C(=O)O)C(C)C)[C@@H](C)O)[C@@H](C)CC)C(C)C [Peptide 68.0107]

>  <inequality.operator>
>

>  <IC50 / µM>
20

$$$$
>  <compound>
CC[C@H](C)[C@H](NC(=O)[C@@H](NC(=O)[C@@H]1CCCN1C(=O)[C@@H](NC(=O)[C@@H](NC(=O)[C@H](CC(N)=O)NC(=O)CNC(=O)[C@H](CO)NC(=O)[C@H](CS)NC(=O)[C@H](CC(C)C)NC(=O)[C@H](CCCCN)NC(=O)[C@H](CCCNC(=N)N)NC(=O)[C@H](CCCNC(=N)N)NC(=O)[C@@H](N)CCCCN)[C@@H](C)O)[C@@H](C)O)[C@@H](C)CC)C(=O)N[C@@H](Cc1c[nH]cn1)C(=O)O [Peptide 1601.16]

>  <inequality.operator>
=

>  <IC50 / µM>
5.94

$$$$
>  <compound>
CC[C@H](C)[C@H](NC(=O)[C@H](CC(=O)O)NC(=O)[C@H](Cc1c[nH]cn1)NC(=O)[C@@H](NC(=O)[C@@H](NC(=O)[C@@H](NC(=O)[C@H](CCC(N)=O)NC(=O)[C@H](CC(C)C)NC(=O)[C@H](CCC(=O)O)NC(=O)[C@@H](NC(=O)[C@H](CS)NC(=O)[C@@H](N)CC(C)C)[C@@H](C)O)[C@@H](C)O)[C@@H](C)O)[C@@H](C)CC)C(=O)N[C@H](C(=O)N[C@@H](CC(C)C)C(=O)N[C@@H](CCC(=O)O)C(=O)O)[C@@H](C)CC [Peptide 1543.24]

>  <inequality.operator>
=

>  <IC50 / µM>
0.08

$$$$
>  <compound>
CC(C)C[C@H](NC(=O)[C@H](CCC(=O)O)NC(=O)[C@H](CCCCN)NC(=O)[C@H](C)N)C(=O)N[C@@H](CCCCN)C(=O)N[C@@H](Cc1ccccc1)C(=O)N[C@H](C(=O)N[C@H](C(=O)N[C@@H](CC(C)C)C(=O)N[C@H](C(=O)N[C@@H](Cc1ccccc1)C(=O)N[C@@H](CCCNC(=N)N)C(=O)N[C@@H](Cc1c[nH]cn1)C(=O)NCC(=O)N[C@@H](CC(=O)O)C(=O)O)C(C)C)[C@@H](C)O)C(C)C [Peptide 68.0025]

>  <inequality.operator>
>

>  <IC50 / µM>
20

$$$$

----------
# target: DR7 (DRB1*0701) (Homo sapiens, UniProt P01903+P01911, A100R/A102G/A103Q/D57E/D86V/E43K/F76Y/K127E/L162R/M171V/P40G/Q125H/Q99D/R33Q/R42Y/R54Q/S133A/S66F/T210M/V115G/Y107V/Y59L/Y89S)
# method: biochemical
# Format: binding
pIC50: −log10 of the molar value. No end group written: not given here.
Kindly return T if reported pIC50 is no lower than 6; return F if it is lower.

>  <sequence.entry>
GKSLFGMSLMKFLQG [Peptide 89.0019]

>  <category>
T

$$$$
>  <sequence.entry>
ESVFSSDEISFAGIV [Peptide 90.0195]

>  <category>
T

$$$$
>  <sequence.entry>
GGDWKQIVMFLRYQG [Peptide 89.0013]

>  <category>
F

$$$$
>  <sequence.entry>
SNEVSSPEIIRQHLA [Peptide 1601.06]

>  <category>
F

$$$$
>  <sequence.entry>
PHAFPFDKNGNPVYE [Peptide 90.0106]

>  <category>
F

$$$$
>  <sequence.entry>
HWKLIRMECAIMYTA [Peptide 90.0021]

>  <category>
F

$$$$
>  <sequence.entry>
PCHTTKLLHRDSVDS [Peptide 1601.07]

>  <category>
F

$$$$
>  <sequence.entry>
DNELTDDSDIAYYYA [Peptide 90.0085]

>  <category>
F

$$$$
>  <sequence.entry>
NTTPIIHLKGDKNSL [Peptide 1601.37]

>  <category>
F

$$$$
>  <sequence.entry>
QQTVCREGVKRRLIL [Peptide 90.0129]

>  <category>
F

$$$$
>  <sequence.entry>
LVQIKCPPLLITTNI [Peptide 89.0138]

>  <category>
F

$$$$
>  <sequence.entry>
LKVLIKQHSLYTHLQ [Peptide 89.0061]

>  <category>
T

$$$$
>  <sequence.entry>
NSIFDFGEMVQWAYD [Peptide 89.0106]

>  <category>
F

$$$$
>  <sequence.entry>
DFLNTVKIPNTVSVS [Peptide 1601.28]

>  <category>
T

$$$$
>  <sequence.entry>
HCTLYTAVSSTWHWT [Peptide 89.0157]

>  <category>
F

$$$$
>  <sequence.entry>
NTEVETQQMLQVEGR [Peptide 89.0002]

>  <category>
F

$$$$
>  <sequence.entry>
HQVVPPMAVSKAKAC [Peptide 90.0012]

>  <category>
T

$$$$
>  <sequence.entry>
RHLDKKQRFHNIRGR [Peptide 1543.26]

>  <category>
T

$$$$
>  <sequence.entry>
STSDDTVSATQIVRQ [Peptide 1601.31]

>  <category>
F

$$$$
>  <sequence.entry>
ALSVSKAKALQAIEL [Peptide 89.0170]

>  <category>
F

$$$$
>  <sequence.entry>
VILLGRHSLFHPEDT [Peptide 68.0068]

>  <category>
F

$$$$
>  <sequence.entry>
DWVMAIFGVNPTVAE [Peptide 89.0079]

>  <category>
T

$$$$
>  <sequence.entry>
RDSVDSAPILTAFNS [Peptide 89.0156]

>  <category>
T

$$$$
>  <sequence.entry>
DRGVLILLLIRFKCG [Peptide 89.0099]

>  <category>
T

$$$$
